Data origin, for the record: patent US20040138238A1

Biological target: NK2 receptors (Homo sapiens)
Assay: in vitro binding to NK2 receptors
Settings: unit inferred
Experimental: The activity of compounds of the invention were tested in vitro for binding to NK1 and NK2 receptors.
pKi: −log10 of the molar value.

- COMPOUND: "OC(CNC1CCN(c2ncnc3scc(-c4ccccc4)c23)CC1)COc1ccc(Cl)cc1 (stereo not drawn)"
  RELATION_SYMBOL: "<"
  pKi: 5.00
- COMPOUND: "COc1ccc(OCC(O)CNC2CCN(c3ncnc4scc(-c5ccccc5)c34)CC2)c(Cl)c1 (stereo not drawn)"
  RELATION_SYMBOL: "="
  pKi: 5.80
- COMPOUND: "OC(CNC1CCN(c2ncnc3scc(-c4ccccc4)c23)CC1)COc1cc(C(F)(F)F)cc(C(F)(F)F)c1 (stereo not drawn)"
  RELATION_SYMBOL: "<"
  pKi: 6.00
- COMPOUND: "OC(CNC1CCN(c2ncnc3scc(-c4ccccc4)c23)CC1)COc1ccc2c(c1)OCO2 (stereo not drawn)"
  RELATION_SYMBOL: "<"
  pKi: 5.00
- COMPOUND: "COc1ccc(OCC(O)CNC2CCN(c3ncnc4scc(-c5ccccc5)c34)CC2)cc1OC (stereo not drawn)"
  RELATION_SYMBOL: "="
  pKi: 5.20
- COMPOUND: "OC(CNC1CCN(c2ncnc3scc(-c4ccccc4)c23)CC1)COc1ccc(Cl)c(Cl)c1 (stereo not drawn)"
  RELATION_SYMBOL: "="
  pKi: 5.47

* * *

Biological target: NK2 receptors (Homo sapiens, UniProt P21452)
Sequence (P21452 whole entry): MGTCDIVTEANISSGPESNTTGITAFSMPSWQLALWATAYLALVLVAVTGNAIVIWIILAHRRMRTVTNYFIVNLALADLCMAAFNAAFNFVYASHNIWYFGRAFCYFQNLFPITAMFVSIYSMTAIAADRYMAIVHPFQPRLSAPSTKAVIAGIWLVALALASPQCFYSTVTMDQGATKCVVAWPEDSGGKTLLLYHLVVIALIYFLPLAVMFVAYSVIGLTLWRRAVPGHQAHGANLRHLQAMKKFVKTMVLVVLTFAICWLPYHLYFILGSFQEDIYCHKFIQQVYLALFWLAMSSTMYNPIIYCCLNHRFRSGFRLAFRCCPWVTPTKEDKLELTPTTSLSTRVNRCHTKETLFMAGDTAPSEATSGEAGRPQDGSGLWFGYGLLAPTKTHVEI
Assay: in vitro binding to NK2 receptors
pKi: −log10 of the molar value.
The following compounds are shown together with reported pKi values.
MEASURED_ATTRIBUTE: pKi

- COMPOUND: "COc1ccc(OCC(O)CNC2CCN(c3ncnc4scc(-c5ccccc5)c34)CC2)cc1 (centres unmarked)"
  REPORTED_MEASUREMENT: 5.77
- COMPOUND: "OC(CNC1CCN(c2ncnc3scc(-c4ccccc4)c23)CC1)COCc1ccccc1 (centres unmarked)"
  REPORTED_MEASUREMENT: 5.62

* * *

Target: UniProt:P25103
Sequence (P25103 whole entry): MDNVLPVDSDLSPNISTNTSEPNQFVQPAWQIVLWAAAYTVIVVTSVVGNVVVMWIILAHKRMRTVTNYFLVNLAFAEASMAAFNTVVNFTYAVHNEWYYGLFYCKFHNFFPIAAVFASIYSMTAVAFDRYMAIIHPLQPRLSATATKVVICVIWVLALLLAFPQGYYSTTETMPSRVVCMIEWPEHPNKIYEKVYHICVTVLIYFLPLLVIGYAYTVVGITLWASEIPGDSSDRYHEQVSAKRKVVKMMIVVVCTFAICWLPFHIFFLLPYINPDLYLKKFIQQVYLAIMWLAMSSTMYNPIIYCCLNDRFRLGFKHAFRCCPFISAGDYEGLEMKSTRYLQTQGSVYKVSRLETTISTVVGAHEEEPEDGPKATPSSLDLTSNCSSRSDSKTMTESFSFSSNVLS
Entries whose Ki is below 300 nM take fulfilled; entries at or above 300 nM take not fulfilled.

- COMPOUND: "OC(CNC1CCN(c2ncnc3scc(-c4ccccc4)c23)CC1)COCc1ccccc1 (stereo not drawn)"
  ANSWER_LABEL: "fulfilled"
- COMPOUND: "OC(CNC1CCN(c2ncnc3scc(-c4ccccc4)c23)CC1)COc1ccc2c(c1)OCO2 (stereo not drawn)"
  ANSWER_LABEL: "fulfilled"
- COMPOUND: "COc1cc(OCC(O)CNC2CCN(c3ncnc4scc(-c5ccccc5)c34)CC2)ccc1Cl (stereo not drawn)"
  ANSWER_LABEL: "fulfilled"
- COMPOUND: "OC(CNC1CCN(c2ncnc3sccc23)CC1)COc1ccc2c(c1)OCO2 (stereo not drawn)"
  ANSWER_LABEL: "not fulfilled"
- COMPOUND: "OC(CNC1CCN(c2ncnc3scc(-c4ccccc4)c23)CC1)COc1ccc(F)c(Cl)c1 (stereo not drawn)"
  ANSWER_LABEL: "fulfilled"
- COMPOUND: "COc1ccc(OCC(O)CNC2CCN(c3ncnc4scc(-c5ccccc5)c34)CC2)c(Cl)c1 (stereo not drawn)"
  ANSWER_LABEL: "fulfilled"
- COMPOUND: "OC(CNC1CCN(c2ncnc3scc(-c4ccccc4)c23)CC1)COc1cc(C(F)(F)F)cc(C(F)(F)F)c1 (stereo not drawn)"
  ANSWER_LABEL: "not fulfilled"
- COMPOUND: "Cc1csc2ncnc(N3CCC(NCC(O)COc4ccc5c(c4)OCO5)CC3)c12 (stereo not drawn)"
  ANSWER_LABEL: "not fulfilled"
- COMPOUND: "COc1ccc(OCC(O)CNC2CCN(c3ncnc4scc(-c5ccccc5)c34)CC2)cc1OC (stereo not drawn)"
  ANSWER_LABEL: "fulfilled"
- COMPOUND: "OC(CNC1CCN(c2ncnc3scc(-c4ccccc4)c23)CC1)COc1cc(F)cc(F)c1 (stereo not drawn)"
  ANSWER_LABEL: "fulfilled"
- COMPOUND: "OC(CNC1CCN(c2ncnc3scc(-c4ccccc4)c23)CC1)COc1ccc(Cl)cc1 (stereo not drawn)"
  ANSWER_LABEL: "not fulfilled"
- COMPOUND: "COc1ccc(OCC(O)CNC2CCN(c3ncnc4scc(-c5ccccc5)c34)CC2)cc1 (stereo not drawn)"
  ANSWER_LABEL: "fulfilled"
